src = patent US12624112

Molecular target: T1, Human ST2-his (human, UniProt Q01638-2 19-328, limits assumed)
T1 construct: Expressed in CHO-K1; The printed range starts at Met1; also called human ST2 fused with a 6-histidine tag at the C-terminus
T1 sequence: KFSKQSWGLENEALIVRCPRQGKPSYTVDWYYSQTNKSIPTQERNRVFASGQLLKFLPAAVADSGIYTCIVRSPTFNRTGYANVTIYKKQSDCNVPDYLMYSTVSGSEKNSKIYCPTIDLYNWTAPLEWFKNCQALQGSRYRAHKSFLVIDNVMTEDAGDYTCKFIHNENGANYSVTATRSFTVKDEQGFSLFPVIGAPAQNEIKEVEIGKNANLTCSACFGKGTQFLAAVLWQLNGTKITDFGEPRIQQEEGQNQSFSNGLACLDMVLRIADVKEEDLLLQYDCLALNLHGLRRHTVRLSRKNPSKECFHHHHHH
Experiment: SPR Biacore X100, antibody captured on protein A chip, human ST2-his injected, pH 7.4
Lab note: anything with kon below 800000 M⁻¹ s⁻¹ is marked criterion met; values at 800000 M⁻¹ s⁻¹ or higher are marked criterion not met.

Binder | Label
5888-153-H0L1 (antibody, human IgG4 S228P, kappa, V domains shown, Humanized antibody) VH: QVQLVQSGAEVKKPGASVKVSCKASGYTFTDYELHWVRQAPGQGLEWMGTIDPETGDTVYNQKFKARVTMTRDTSTSTVYMELSSLRSEDTAVYYCARAFYNDYDDGFAYWGQGTLVTVSS VL: EIVMTQSPATLSLSPGERATLSCSVSSSVSYMHWYQQKPGQAPRRLIYDTSKLASGIPARFSGSGSGTDYTLTISSLEPEDAAVYYCQQWNSSPLTFGGGTKVEIKR | criterion not met
Control antibody CNTO7160 (antibody, human IgG4 S228P, kappa, V domains shown, Known anti-ST2 control antibody) VH: EVQLLESGGGLVQPGGSLRLSCAASGFTFSIYDMIWVRQAPGKGLEWVSSIRGEGGGTYYADSVKGRFTISRDNSKNTLYLQMNSLRAEDTAVYYCARDPWSTEGSFFVLDYWGQGTLVTVSS VL: EIVLTQSPATLSLSPGERATLSCRASQSVDDDLAWYQQKPGQAPRLLIYDASNRATGIPARFSGSGSGTDFTLTISSLEPEDFAVYYCQQYITAPLTFGQGTKVEIKR | criterion met
5888-116-H0L1 (antibody, human IgG4 S228P, kappa, V domains shown, Humanized antibody) VH: QVQLVQSGAEVKKPGASVKVSCKASGYTFTDSEMYWVRQAPGQGLEWMGAIDPETGDTAFNQKFKGRVTMTRDTSTSTVYMELSSLRSEDTAVYYCARAFDNDNDDGFAYWGQGTMVTVSS VL: DIQMTQSPSSLSASVGDRVTITCSASSSVNYMHWYQQKPGKAPKRLIYDTSKLASGVPSRFSGSGSGTDYTFTISSLQPEDAATYYCQQWSSNPLTFGQGTKLEIKR | criterion not met

We next turn to a different binder, shown below.
Lookup: Problem: For the binder 5886-156-H1L0 (antibody, human IgG4 S228P, kappa, V domains shown, Humanized antibody expressed in CHO-K1, purified by protein A) VH: QVQLQESGPGLVKPSQTLSLTCTVSGYSITSDYAWNWIRQPPGKGLEWIGYIDYSGSTTYNPSLKSRVTISRDTSKNQFSLKLSSVTAADTAVYYCASTVIDSMDYWGQGTLVTVSS VL: DIVLTQSPASLAVSPGQRATITCRASKSVSTSGHSYMHWYQQKPGQPPKLLIYLASNLESGVPARFSGSGSGTDFTLTINPVEANDTANYYCQHSREFPFTFGQGTKVEIKR , is kon under 800000 M⁻¹ s⁻¹?
Found: criterion not met
